# Height per entry
Tested on: rice
Assay: Low temperature assay on rice seedlings
Assay type: in vivo
Conditions: 0.0001 mg/l, 5 °C, 9 days
Report as a plain number; the unit cm is understood.

Below, 5 compounds whose answers are already recorded.
COMPOUND | Height, cm
CC(C)C[C@@H](O)[C@H](O)[C@@H](C)[C@H]1CCC2C3CC(=O)C4C[C@H](O)[C@H](O)C[C@]4(C)C3CC[C@@]21C (stereo partly drawn) [BR5] | 7.5
CC[C@@H](C(C)C)[C@@H](O)[C@H](O)[C@@H](C)[C@H]1CCC2C3COC(=O)C4C[C@H](O)[C@H](O)C[C@]4(C)C3CC[C@@]21C (stereo partly drawn) [BR2] | 7.5
C=C(C(C)C)[C@@H](O)[C@H](O)[C@@H](C)[C@H]1CCC2C3COC(=O)C4C[C@H](O)[C@H](O)C[C@]4(C)C3CC[C@@]21C (stereo partly drawn) [BR3] | 7.5
CC(C)[C@H](C)[C@@H](O)[C@H](O)[C@@H](C)[C@H]1CCC2C3CC(=O)C4C[C@H](O)CC[C@]4(C)C3CC[C@@]21C (stereo partly drawn) [BR4] | 7.5
CC(C)[C@H](C)[C@@H](O)[C@H](O)[C@@H](C)[C@H]1CCC2C3COC(=O)C4C[C@H](O)[C@H](O)C[C@]4(C)C3CC[C@@]21C (stereo partly drawn) [BR1] | 7.5

Now consider the entry below.
Task item: Which Height value belongs to CC(C)(O)CC[C@@H](O)[C@](C)(O)[C@H]1CC[C@@]2(O)[C@@H]3CC(=O)[C@@H]4C[C@@H](O)[C@@H](O)C[C@]4(C)[C@H]3CC[C@]12C [BR6] ?
Reply: 7.5

###

System: rice seed
Assay: Salt tolerance assay: germination of rice seed under high salt environment
Assay type: in vivo
Settings: sample 0.0001 mg/l, salt 300 mg/l
Excerpt: According to a salt tolerance assay, we measured germination of rice seed under high salt environment to determine effects of the natural brassinolide analogues on the salt tolerance of a plant. The natural brassinolide analogues, BR1, BR2, BR3, BR4, BR5 and BR6, used herein, were those prepared by the method of Example 1. […]
READOUT_KIND: Germination rate
Please answer using a numeric value trailed by its unit.

// known answers, use as guide
COMPOUND | EXPERIMENTAL_SYSTEM | Germination rate
C=C(C(C)C)[C@@H](O)[C@H](O)[C@@H](C)[C@H]1CCC2C3COC(=O)C4C[C@H](O)[C@H](O)C[C@]4(C)C3CC[C@@]21C (stereo partly shown) [BR3] | rice seed | 50%
CC(C)[C@H](C)[C@@H](O)[C@H](O)[C@@H](C)[C@H]1CCC2C3COC(=O)C4C[C@H](O)[C@H](O)C[C@]4(C)C3CC[C@@]21C (stereo partly shown) [BR1] | rice seed | 51%
CC[C@@H](C(C)C)[C@@H](O)[C@H](O)[C@@H](C)[C@H]1CCC2C3COC(=O)C4C[C@H](O)[C@H](O)C[C@]4(C)C3CC[C@@]21C (stereo partly shown) [BR2] | rice seed | 45%

Query compound follows.
Task item: What does the record list as Germination rate for CC(C)[C@H](C)[C@@H](O)[C@H](O)[C@@H](C)[C@H]1CCC2C3CC(=O)C4C[C@H](O)CC[C@]4(C)C3CC[C@@]21C (stereo partly shown) [BR4] ?
Reply: 50%
